Hello, the source for this data is ChEMBL document CHEMBL4138315, in case you need it.

# tgt: Opioid receptors; mu & delta (Homo sapiens, UniProt P41143+P35372)
# Sequence (P35372 whole entry, looked up): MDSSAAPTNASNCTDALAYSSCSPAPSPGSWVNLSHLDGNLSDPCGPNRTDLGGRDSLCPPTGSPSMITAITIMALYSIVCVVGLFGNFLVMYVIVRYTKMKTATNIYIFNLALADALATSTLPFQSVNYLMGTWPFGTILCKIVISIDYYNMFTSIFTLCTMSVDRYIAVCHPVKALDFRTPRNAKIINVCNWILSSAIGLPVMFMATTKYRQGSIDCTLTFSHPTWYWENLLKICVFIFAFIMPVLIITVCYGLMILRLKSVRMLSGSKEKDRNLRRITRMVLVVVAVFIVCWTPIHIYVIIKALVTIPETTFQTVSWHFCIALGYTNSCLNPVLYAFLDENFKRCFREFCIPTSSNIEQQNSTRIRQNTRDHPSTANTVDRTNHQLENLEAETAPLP
# Sequence (P41143 whole entry, looked up): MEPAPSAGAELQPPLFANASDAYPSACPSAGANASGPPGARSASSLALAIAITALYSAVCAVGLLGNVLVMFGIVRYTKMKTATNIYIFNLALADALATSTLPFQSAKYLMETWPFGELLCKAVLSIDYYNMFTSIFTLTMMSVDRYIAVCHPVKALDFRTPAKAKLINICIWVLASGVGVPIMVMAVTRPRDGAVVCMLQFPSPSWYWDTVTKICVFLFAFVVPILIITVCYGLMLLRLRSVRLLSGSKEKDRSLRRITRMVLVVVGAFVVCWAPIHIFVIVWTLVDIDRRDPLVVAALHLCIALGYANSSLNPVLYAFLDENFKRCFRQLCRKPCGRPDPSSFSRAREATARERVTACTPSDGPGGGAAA
# testSummary: Displacement of [3H]-diprenorphine from human mu-delta opioid receptor heterodimer expressed in CHO cell membranes at high site fraction after 80 mins by scintillation counting analysis relative to control
Measured Imax, listed per entry for reference.
// return the numeric value with its unit appended

Example results:
structurenotation=N[C@@H](Cc1ccc(O)cc1)C(=O)N1Cc2ccccc2C[C@@H]1C(=O)NCC(=O)NCCCC(=O)N[C@H](CCCCNC(=O)CCNC(=O)CNC(=O)[C@@H](Cc1cccc2ccccc12)NC(=O)[C@H](Cc1ccccc1)NC(=O)[C@@H]1CCCN1C(=O)[C@@H](N)Cc1ccc(O)cc1)C(=O)O experimentalendpoint=Imax result=9%
structurenotation=N[C@@H](Cc1ccc(O)cc1)C(=O)N1Cc2ccccc2C[C@@H]1C(=O)NCC(=O)NCC(=O)NCCCCCC(=O)NCCC(=O)N[C@H](CCCCNC(=O)CCNC(=O)CCCCCNC(=O)CCNC(=O)CNC(=O)[C@@H](Cc1cccc2ccccc12)NC(=O)[C@H](Cc1ccccc1)NC(=O)[C@@H]1CCCN1C(=O)[C@@H](N)Cc1ccc(O)cc1)C(=O)O experimentalendpoint=Imax result=12%
structurenotation=N[C@@H](Cc1ccc(O)cc1)C(=O)N1Cc2ccccc2C[C@@H]1C(=O)NCC(=O)NCCCCC(=O)N[C@H](CCCCNC(=O)CCCCNC(=O)CNC(=O)[C@@H](Cc1cccc2ccccc12)NC(=O)[C@H](Cc1ccccc1)NC(=O)[C@@H]1CCCN1C(=O)[C@@H](N)Cc1ccc(O)cc1)C(=O)O experimentalendpoint=Imax result=11%
structurenotation=N[C@@H](Cc1ccc(O)cc1)C(=O)N1Cc2ccccc2C[C@@H]1C(=O)NCC(=O)NCCCCC(=O)N[C@H](CCCCNC(=O)CNC(=O)[C@@H](Cc1cccc2ccccc12)NC(=O)[C@H](Cc1ccccc1)NC(=O)[C@@H]1CCCN1C(=O)[C@@H](N)Cc1ccc(O)cc1)C(=O)O experimentalendpoint=Imax result=12%

// query # query: Imax of entry N[C@@H](Cc1ccc(O)cc1)C(=O)N1Cc2ccccc2C[C@@H]1C(=O)NCC(=O)NCC(=O)N[C@H](CCCCNC(=O)CNC(=O)[C@@H](Cc1cccc2ccccc12)NC(=O)[C@H](Cc1ccccc1)NC(=O)[C@@H]1CCCN1C(=O)[C@@H](N)Cc1ccc(O)cc1)C(=O)O
// result 12%
